- target or system: HLA-A*24 (human)
- measurement description: UV-ligand exchange, b2m ELISA
Where no end group is shown, it is not given here.
Consider the following binders; for each one, report its peptide exchange yield.

Q) What does the record list as peptide exchange yield for RYSTGLAGNLL [… (SEQ ID No 221)] ?
A) 50 to 75%

Q) Do the same for YYGPSLFLL [… (SEQ ID No 200)] please
A) 50 to 75%

Q) Do the same for YYLEVGKTLI [… (SEQ ID No 211)] please
A) > 75%

Q) Do the same for KYTSWYVAL [… (SEQ ID No 228)] please
A) > 75%

Q) Do the same for IYATEAHVF [… (SEQ ID No 201)] please
A) 50 to 75%

Please go through the list and note peptide exchange yield for each binder.
1. LFIPSSKLLFL [… (SEQ ID No 171)]
2. IFIEVFSHF [… (SEQ ID No 178)]
3. LYIDRPLPYL [… (SEQ ID No 196)]
4. VYVSDIQEL [… (SEQ ID No 288)]
5. IYQLDTASI [… (SEQ ID No 182)]
6. DYTTWTALL [… (SEQ ID No 165)]
7. VYPWLGALL [… (SEQ ID No 177)]
8. KYIPYKYVI [… (SEQ ID No 223)]

A)
["50 to 75%", "50 to 75%", "50 to 75%", "50 to 75%", "50 to 75%", "> 75%", "> 75%", "50 to 75%"]

Please go through the list and note peptide exchange yield for each binder.
1. RYFKGLVF [RYFKGLVF (SEQ ID No 188)]
2. VYRDETGELF [… (SEQ ID No 226)]

A)
50 to 75%
50 to 75%

Please go through the list and note peptide exchange yield for each binder.
1. EYQENFLSF [… (SEQ ID No 206)]
2. TYIESASEL [… (SEQ ID No 279)]

A)
["50 to 75%", "50 to 75%"]

Please go through the list and note peptide exchange yield for each binder.
1. AYVVFVSTL [… (SEQ ID No 207)]
2. NYYEVHKELF [… (SEQ ID No 270)]

A)
["20 to 49%", "50 to 75%"]
